Origin of values: ChEMBL document CHEMBL1133462

Biological target: Retinoic acid receptor alpha (Homo sapiens) (UniProt P10276)
Sequence (whole entry): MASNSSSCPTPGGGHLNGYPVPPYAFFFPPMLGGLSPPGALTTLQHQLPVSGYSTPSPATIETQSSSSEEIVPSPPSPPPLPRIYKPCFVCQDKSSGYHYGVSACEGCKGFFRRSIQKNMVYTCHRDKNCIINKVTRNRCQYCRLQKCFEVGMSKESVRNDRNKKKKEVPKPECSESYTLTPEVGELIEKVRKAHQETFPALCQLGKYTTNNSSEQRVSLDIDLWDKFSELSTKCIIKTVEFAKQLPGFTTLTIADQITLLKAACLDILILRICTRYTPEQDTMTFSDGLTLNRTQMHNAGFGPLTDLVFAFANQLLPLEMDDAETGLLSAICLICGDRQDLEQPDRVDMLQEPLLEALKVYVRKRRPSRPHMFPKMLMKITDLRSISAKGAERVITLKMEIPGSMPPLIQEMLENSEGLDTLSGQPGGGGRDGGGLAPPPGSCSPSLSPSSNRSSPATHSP
Experiment: Inhibition of [3H]-ATRA binding to Retinoic acid receptor alpha (RAR-alpha)
Observable: Relative IC50 (nM)

Known Relative IC50 results, listed for orientation:
Sample Smiles: COc1ccc(C)c2oc(-c3ccc(-c4ccc(C(=O)O)cc4)[nH]3)cc12
Result Number: 15
//
Sample Smiles: Cc1ccc(C)c2sc(-c3ccc(-c4ccc(C(=O)O)cc4)[nH]3)cc12
Result Number: 6.1
//
Sample Smiles: Cc1cccc2cc(-c3ccc(-c4ccc(C(=O)O)cc4)[nH]3)oc12
Result Number: 1.6
//
Sample Smiles: Cc1ccc(C)c2oc(-c3ccc(-c4ccc(C(=O)O)cc4)[nH]3)cc12
Result Number: 1.4
//
Sample Smiles: O=C(O)c1ccc(-c2ccc(-c3cc4c(C(F)(F)F)ccc(F)c4o3)[nH]2)cc1
Result Number: 1.9
//
Sample Smiles: Cc1cc(C)c2oc(-c3ccc(-c4ccc(C(=O)O)cc4)[nH]3)cc2c1
Result Number: 16
//
Sample Smiles: Cc1cc(C)c2oc(-c3ccc(-c4ccc(C(=O)O)cc4)[nH]3)cc2c1C
Result Number: 9.4

P: Cc1ccc2cc(-c3ccc(-c4ccc(C(=O)O)cc4)[nH]3)oc2c1C
Q: O=C(O)c1ccc(-c2ccc(-c3cc4c(Cl)ccc(Cl)c4o3)[nH]2)cc1
R: Cc1cc(C)c2sc(-c3ccc(-c4ccc(C(=O)O)cc4)[nH]3)cc2c1
Query string: Give the ascending ranking of the items by reported Relative IC50. Answer format: the labels, ordered as requested.
Result string: Q, P, R
(Q: 1.5 nM, P: 12 nM, R: 62 nM)

====

Target: Retinoic acid receptor alpha (Homo sapiens) (UniProt P10276)
Test: Relative transcriptional activation in COS cells expressing Retinoic acid receptor alpha compared to ATRA
Assay type: functional, cell-based
Observable: Relative EC30 (nM)

P: Cc1cc(C)c2oc(-c3ccc(-c4ccc(C(=O)O)cc4)[nH]3)cc2c1
Q: Cc1cc(C)c2oc(-c3ccc(-c4ccc(C(=O)O)cc4)[nH]3)cc2c1C
R: COc1ccc(C)c2oc(-c3ccc(-c4ccc(C(=O)O)cc4)[nH]3)cc12
S: Cc1ccc(C)c2oc(-c3ccc(-c4ccc(C(=O)O)cc4)[nH]3)cc12
Query string: Please list these in order of increasing Relative EC30. Thank you! Answer format: the labels, ordered as requested.
Result string: S, P, Q, R
